Below are IC50 values recorded for full-length RORγt in Jurkat cells (Homo sapiens, UniProt P51449).

Noted IC50 for CCS(=O)(=O)c1ccc([C@H](CO)NC(=O)c2cnc3c(c2)CN(C[C@H]2CC[C@H](C(F)(F)F)CC2)C3C(F)(F)F)cc1 (stereo partly shown) , tested on full-length RORγt in Jurkat cells (Homo sapiens, UniProt P51449): < 100 nM

Noted IC50 for CCS(=O)(=O)c1ccc([C@@H](CO)NC(=O)c2cnc3c(c2)CN(C[C@H]2CC[C@H](C(F)(F)F)CC2)[C@H]3C(C)C)cc1 , tested on full-length RORγt in Jurkat cells (Homo sapiens, UniProt P51449): < 100 nM
